These entries and their values trace back to ChEMBL document CHEMBL4145589.

# test.system: Tryptophan 2,3-dioxygenase (Homo sapiens, UniProt P48775)
# Sequence (P48775 whole entry): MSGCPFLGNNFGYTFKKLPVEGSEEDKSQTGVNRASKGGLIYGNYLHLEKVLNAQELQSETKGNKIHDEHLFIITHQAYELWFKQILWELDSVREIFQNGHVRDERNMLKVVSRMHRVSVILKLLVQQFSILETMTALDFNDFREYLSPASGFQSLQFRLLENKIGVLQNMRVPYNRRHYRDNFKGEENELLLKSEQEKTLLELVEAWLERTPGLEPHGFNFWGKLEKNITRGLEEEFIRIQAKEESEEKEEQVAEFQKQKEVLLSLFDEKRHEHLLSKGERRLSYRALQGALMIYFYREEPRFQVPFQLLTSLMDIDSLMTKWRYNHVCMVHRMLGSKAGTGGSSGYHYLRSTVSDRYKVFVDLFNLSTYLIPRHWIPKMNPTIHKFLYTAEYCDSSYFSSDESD
# experiment.description: Inhibition of TDO2 in human SW48 cells assessed as decrease in conversion of tryptophan to N-formylkynurenine after 30 mins by fluorescence assay
readout: EC50 (nM)
Write the answer as a number in nM, unit excluded.

Entry under test: Nc1oncc1-c1ccc(F)cc1 . Its EC50 was 210

Entry under test: Nc1oncc1-c1ccccn1 . Its EC50 was 820

Entry under test: Cc1noc(N)c1-c1ccccc1 . Its EC50 was 9700

Entry under test: CNc1oncc1-c1ccccc1 . Its EC50 was 670

Entry under test: Nc1oncc1-c1cccc(Cl)c1 . Its EC50 was 250

Entry under test: Nc1oncc1-n1cccn1 . Its EC50 was 230

Entry under test: Cc1ccn(-c2cnoc2N)n1 . Its EC50 was 810

Entry under test: Nc1oncc1C1CCCCC1 . Its EC50 was 1500

Entry under test: Nc1oncc1-n1cc(F)cn1 . Its EC50 was 77

Entry under test: COc1cccc(-c2cnoc2N)c1 . Its EC50 was 1500

Entry under test: Nc1oncc1C1CCCC1 . Its EC50 was 360

Entry under test: Nc1oncc1-c1ccccc1 . Its EC50 was 85

Entry under test: Cc1cnn(-c2cnoc2N)c1 . Its EC50 was 340

Entry under test: Nc1oncc1-c1ccc(Cl)cc1 . Its EC50 was 950

Entry under test: Nc1oncc1-c1cccs1 . Its EC50 was 810

Entry under test: OCc1oncc1-c1ccccc1 . Its EC50 was 18000

Entry under test: Nc1oncc1-c1cccnc1 . Its EC50 was 1400

Entry under test: Nc1oncc1-c1ccsc1 . Its EC50 was 99

---

# test.system: Cytochrome P450 1A2 (Homo sapiens, UniProt P05177)
# Sequence (P05177 whole entry): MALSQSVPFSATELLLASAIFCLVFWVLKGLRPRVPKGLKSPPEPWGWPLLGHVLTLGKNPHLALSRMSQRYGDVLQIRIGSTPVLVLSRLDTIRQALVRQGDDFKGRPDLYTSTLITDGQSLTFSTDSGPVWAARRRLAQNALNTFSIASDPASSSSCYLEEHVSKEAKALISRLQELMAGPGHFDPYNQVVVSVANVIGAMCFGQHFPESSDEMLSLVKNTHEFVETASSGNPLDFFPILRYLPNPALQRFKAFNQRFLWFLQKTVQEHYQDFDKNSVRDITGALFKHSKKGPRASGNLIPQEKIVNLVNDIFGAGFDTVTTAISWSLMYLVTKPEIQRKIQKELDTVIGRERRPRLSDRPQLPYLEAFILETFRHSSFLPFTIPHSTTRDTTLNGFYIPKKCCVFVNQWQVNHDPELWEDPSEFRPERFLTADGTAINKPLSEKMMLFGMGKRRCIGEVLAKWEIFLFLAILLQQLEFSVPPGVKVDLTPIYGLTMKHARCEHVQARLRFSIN
pIC50: −log10 of the molar value.
readout: pIC50

// assay Cytochrome P450 1A2 (Homo sapiens, UniProt P05177), entry Nc1oncc1-n1cc(F)cn1 , pIC50 value = < 5.00

---

# experiment.description: Metabolic stability in human whole blood assessed as parent compound remaining at 0.5 mM after 2 hrs by LC-MS/MS analysis
# Type: ADME, tissue-based
# applied.conditions: read-out: Stability
readout: remaining at 2 h, 500 µM (%)
Write the answer as a number in %, unit excluded.

Entry under test: Nc1oncc1-c1ccccc1 . Its remaining at 2 h, 500 µM was 0

Entry under test: CNc1oncc1-c1ccccc1 . Its remaining at 2 h, 500 µM was 0.3

Entry under test: Nc1oncc1-n1cc(F)cn1 . Its remaining at 2 h, 500 µM was 91

Entry under test: Cc1noc(N)c1-c1ccccc1 . Its remaining at 2 h, 500 µM was 84

---

# experiment.description: Metabolic stability in dog whole blood assessed as parent compound remaining at 0.5 mM after 30 mins by LC-MS/MS analysis
# Assay type: ADME, tissue-based, Canis lupus familiaris
# applied.conditions: read-out: Stability
readout: remaining at 0.5 h, 500 µM (%)
Write the answer as a number in %, unit excluded.

Entry under test: Nc1oncc1-c1ccsc1 . Its remaining at 0.5 h, 500 µM was 3

---

# experiment.description: Metabolic stability in rat whole blood assessed as parent compound remaining at 0.5 mM after 2 hrs by LC-MS/MS analysis
# Format: ADME, tissue-based
# applied.conditions: read-out: Stability
readout: remaining at 2 h, 500 µM (%)
Write the answer as a number in %, unit excluded.

Entry under test: Cc1noc(N)c1-c1ccccc1 . Its remaining at 2 h, 500 µM was 50

Entry under test: CNc1oncc1-c1ccccc1 . Its remaining at 2 h, 500 µM was 0.1

Entry under test: Nc1oncc1-c1ccccc1 . Its remaining at 2 h, 500 µM was 0
